Molecular target: UniProt:P28845
Test: 11β-hsd-1 enzyme assay, percentage of inhibition (3H-cortisone to cortisol, radio-HPLC)
Format: biochemical
Settings: 0.1 uM; read-out: % inh @ 0.1 uM
measured-property: inhibition at 0.1 µM (%)

Below, each entry is followed by its recorded inhibition at 0.1 µM result.
{"molecule": "Cc1cccc(NS(=O)(=O)c2sc(C)nc2C)n1 [Example 98]", "measured-on": "UniProt:P28845", "endpoint-unit": "%", "inhibition at 0.1 µM": 8.9}
{"molecule": "Nc1cccc(NS(=O)(=O)c2ccc(-c3ccc(F)cc3)cc2)n1 [Example 43]", "measured-on": "UniProt:P28845", "endpoint-unit": "%", "inhibition at 0.1 µM": 98}
{"molecule": "Cc1cccc(NS(=O)(=O)c2sc3ccc(C#N)cc3c2C)n1 [Example 91]", "measured-on": "UniProt:P28845", "endpoint-unit": "%", "inhibition at 0.1 µM": 100}
{"molecule": "Cc1c(Cl)cccc1S(=O)(=O)Nc1cccc(CC(=O)NCc2ccc(C(F)(F)F)cc2)n1 [Example 13]", "measured-on": "UniProt:P28845", "endpoint-unit": "%", "inhibition at 0.1 µM": 9.1}
{"molecule": "Cc1cc(C)nc(NS(=O)(=O)c2ccc(-c3ccc(C#N)cc3)cc2)c1 [Example 96]", "measured-on": "UniProt:P28845", "endpoint-unit": "%", "inhibition at 0.1 µM": 100}

(A) COc1ccc(-c2ccc(S(=O)(=O)Nc3cccc(C)n3)c(C)c2)cc1 [Example 169]
(B) Cc1cc(C)nc(NS(=O)(=O)c2ccc(-c3ccccc3)cc2)c1 [Example 65]
(C) COC(=O)c1cccc(NS(=O)(=O)c2ccc(-c3ccc(C#N)cc3)cc2)n1 [Example 7]
// ascending sort on recorded inhibition at 0.1 µM To answer, arrange all of the labels according to the requested order. C, B, A

---

Molecular target: 11β-hsd-1 enzyme (Homo sapiens)
Sequence (P28845 whole entry, species assumed): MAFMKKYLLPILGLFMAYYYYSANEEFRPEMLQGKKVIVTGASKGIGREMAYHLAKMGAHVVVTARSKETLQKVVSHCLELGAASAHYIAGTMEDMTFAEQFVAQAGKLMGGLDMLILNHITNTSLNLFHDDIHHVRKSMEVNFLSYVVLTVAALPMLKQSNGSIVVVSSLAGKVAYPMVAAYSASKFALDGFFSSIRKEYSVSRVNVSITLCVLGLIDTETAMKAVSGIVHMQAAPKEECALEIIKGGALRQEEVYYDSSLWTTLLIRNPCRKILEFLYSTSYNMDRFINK
Assay: 11β-hsd-1 enzyme assay, percentage of inhibition (3H-cortisone to cortisol, radio-HPLC)
Type: biochemical
Conditions: compound at 0.1 uM; read-out: % inh @ 0.1 uM
measured-property: inhibition at 0.1 µM (%)

Consider the reported inhibition at 0.1 µM for these compounds:
{"compound": "Cc1cccc(NS(=O)(=O)c2ccc(-c3ccc(C#N)cc3)nc2)n1 [Example 267]", "measured-on": "11β-hsd-1 enzyme (Homo sapiens)", "endpoint-unit": "%", "inhibition at 0.1 µM": 81.8}
{"compound": "Cc1cccc(NS(=O)(=O)c2ccc(-c3cn[nH]c3)cc2)n1 [Example 250]", "measured-on": "11β-hsd-1 enzyme (Homo sapiens)", "endpoint-unit": "%", "inhibition at 0.1 µM": 17}
{"compound": "Cc1cccc(NS(=O)(=O)N2CCN3CCC[C@H]3C2)n1 [Example 302]", "measured-on": "11β-hsd-1 enzyme (Homo sapiens)", "endpoint-unit": "%", "inhibition at 0.1 µM": 18.1}

(I) Cc1cccc(NS(=O)(=O)c2ccc(-c3ncccn3)nc2)n1 [Example 261]
(II) CCCCc1ccc(-c2ccc(S(=O)(=O)Nc3cccc(C)n3)c(C)c2)cc1 [Example 209]
Higher inhibition at 0.1 µM: I or II ? Write down the label attached to your selection. II
(II: 88%, I: 2.6%)

(1) O=S(=O)(Nc1cccc(C2CC2)n1)c1ccc(-c2ccc(C(F)(F)F)cc2)nc1 [Example 294]
(2) Cc1cccc(NS(=O)(=O)N2CC(Oc3ccc(F)cc3)C2)n1 [Example 313]
(3) COc1ccc(-c2ccc(S(=O)(=O)Nc3cccc(C)n3)cc2C)cc1F [Example 231]
(4) Cc1c(Cl)cccc1S(=O)(=O)Nc1cccc(NC(=O)C2CCCN2)n1 (stereo not drawn) [Example 296]
Put the items in sequence by inhibition at 0.1 µM, from largest down. Would you mind listing the labels in the order asked for? 1, 3, 2, 4

(a) Cc1cc(C)nc(NS(=O)(=O)N2CCc3ccccc3C2)c1 [Example 304]
(b) Cc1cccc(NS(=O)(=O)c2ccc(-c3ccc(C(N)=O)cc3)cc2)n1 [Example 262]
Could you please tell me which of these two has the higher inhibition at 0.1 µM: a or b ? Choose, then provide that item's label. a

(A) Cc1cccc(NS(=O)(=O)c2ccc(-c3ccc(F)cc3C)cc2)n1 [Example 253]
(B) Cc1cccc(NS(=O)(=O)c2ccc(-c3ccc(O)cc3)cc2C)n1 [Example 199]
Could you determine which record has the numerically smaller inhibition at 0.1 µM? Candidates: A and B Please identify the chosen entry by its label. B
(B: 55%, A: 79.3%)

Attribution: patent US20050148631A1
